tested on: pigweed (Amaranthus retroflexus); assay: Test A preemergence; assay type: in vivo; details: Amaranthus retroflexus, pre-emergence, 240 h, 125 g ai/ha, preemergence; 0 to 100 scale where 0 is no effect and 100 is complete control; read-out: Pigweed plant response rating
What pest or weed control at 125 g/ha was measured for each of the following?
Answer format: number, then unit.

Q: Quick check: pest or weed control at 125 g/ha of O=C1NC[C@H](c2cccc(C(F)(F)F)n2)[C@H]1C(=O)Nc1ccccc1F [Compound 940] ?
Ans: 0%

Q: And then CCOc1ccc([C@H]2CN(C)C(=O)[C@@H]2C(=O)Nc2cccc(F)c2F)cc1 [Compound 904] , what is it?
Ans: 0%

Q: And then CN1C[C@H](c2cc(F)cc(F)c2)[C@@H](C(=O)Nc2ccc(C(F)(F)F)cn2)C1=O [Compound 869] , what is it?
Ans: 0%

Q: And then COc1cccc(C2CN(C)C(=O)C2C(=O)Nc2cccc(F)c2F)c1 (centres unmarked) [Compound 886] , what is it?
Ans: 0%

Q: And then COc1c(F)ccc([C@H]2CNC(=O)[C@@H]2C(=O)Nc2ccccc2S(C)(=O)=O)c1Cl [Compound 916] , what is it?
Ans: 0%

Q: And then O=C1NC[C@H](c2cc(F)c(C(F)(F)F)c(F)c2)[C@H]1C(=O)Nc1ccccc1F [Compound 837] , what is it?
Ans: 20%

Q: And then Cc1cc(C)cc([C@H]2CNC(=O)[C@@H]2C(=O)Nc2ccccc2F)c1 [Compound 888] , what is it?
Ans: 0%

Q: And then Cc1c(F)ccc([C@H]2CN(C)C(=O)[C@@H]2C(=O)Nc2ccc(F)cc2F)c1F [Compound 835] , what is it?
Ans: 20%

* * *

System: barnyardgrass (Echinochloa crus-galli)
Assay: Test G Pre-Emergence Protocol
Format: in vivo
Settings: Echinochloa crus-galli, pre-emergence, 312 h, 62.5 g ai/ha, evaluated after 13 days, 100=total damage to plant, 0=no damage to plant, read-out: plant damage rating, Barnyardgrass
Excerpt: Seeds of corn (Zea mays), giant foxtail (Setaria faberi), barnyardgrass (Echinochloa crus-galli), ivy-leaved morning glory (Ipomoea hederacea), redroot pigweed (Amaranthus retroflexus) and velvetleaf (Abutilon theophrasti) were sown in standard soil in pots. […]
Mark False for pest or weed control at 62.5 g/ha values under 60%, and True for everything at or above.

Q: Would you say CN1C[C@@H](c2ccc(C(F)(F)F)cc2)[C@H](C(=O)Nc2cc(C(F)(F)F)no2)C1=O (racemic) shows pest or weed control at 62.5 g/ha at minimum 60%?
Ans: False

Q: And then CN1C[C@@H](c2ccc(C(F)(F)F)nc2)[C@H](C(=O)Nc2cccc(F)c2F)C1=O (racemic) , what is it?
Ans: True

Q: And then CN1C[C@@H](c2ccc(C(F)(F)F)cc2)[C@H](C(=O)Nc2ccccc2Cl)C1=O (racemic) , what is it?
Ans: True

Q: And then Cc1c(Cl)ncnc1NC(=O)[C@@H]1C(=O)N(C)C[C@H]1c1ccc(C(F)(F)F)cc1 (racemic) , what is it?
Ans: False

Q: And then CN1C[C@@H](c2ccc(C(F)(F)F)cc2)[C@H](C(=O)Nc2nccc(=O)[nH]2)C1=O (racemic) , what is it?
Ans: False

Q: And then CN1C[C@@H](c2ccc(C(F)(F)F)cc2)[C@H](C(=O)Nc2ccc(F)nc2)C1=O (racemic) , what is it?
Ans: False

* * *

test system: Galium (catchweed bedstraw, Galium aparine); test: Test A postemergence; type: in vivo; conditions: Galium, post-emergence, 240 h, 500 g ai/ha, postemergence; 0 to 100 scale, 0 is no effect, 100 is complete control; read-out: Galium plant response rating
What pest or weed control at 500 g/ha was measured for each of the following?
Dear colleague, please return just the value in %, with no unit written.

Q: Quick check: pest or weed control at 500 g/ha of N#Cc1cc([C@H]2CNC(=O)[C@@H]2C(=O)Nc2ccccc2F)ccc1F ?
Ans: 40

Q: And then CN1C[C@H](c2ccc(F)c(F)c2)[C@@H](C(=S)Nc2ccccc2F)C1=O (racemic) , what is it?
Ans: 40

Q: And then N#Cc1ccc([C@H]2CNC(=O)[C@@H]2C(=O)Nc2cccc(F)c2F)cc1 , what is it?
Ans: 50

Q: And then CN1C[C@H](c2cc(F)cc(F)c2)[C@@H](C(=O)Nc2cnccc2Cl)C1=O , what is it?
Ans: 0

* * *

system: Galium (catchweed bedstraw, Galium aparine); experiment: Test A postemergence; assay type: in vivo; details: Galium, post-emergence, 240 h, Postemergence, 31 g ai/ha; 0 is no effect, 100 is complete control; read-out: Galium plant response rating (0 to 100 scale)
What pest or weed control at 31 g/ha was measured for each of the following?

Q: Can you look up pest or weed control at 31 g/ha on Galium (catchweed bedstraw, Galium aparine) for O=C1NC[C@H](c2ccc(Cl)c(F)c2)[C@H]1C(=O)Nc1cccc(F)c1F [Compound 1262] ?
Ans: 30%

Q: And then O=C1NC[C@H](c2cc(Br)cc(Br)c2)[C@H]1C(=O)Nc1cccc(F)c1F [Compound 1366] , what is it?
Ans: 0%

Q: And then CN1C[C@H](c2csc3c2CCC(F)(F)C3)[C@@H](C(=O)Nc2cccc(F)c2F)C1=O (racemic) [Compound 1369] , what is it?
Ans: 0%

Q: And then Cn1ccc2ccc([C@H]3CNC(=O)[C@@H]3C(=O)Nc3cccc(F)c3F)cc21 [Compound 1263] , what is it?
Ans: 0%

Q: And then CN1C[C@H](c2ccc(F)c(Oc3ccccc3)c2)[C@@H](C(=O)Nc2cccc(F)c2F)C1=O [Compound 1259] , what is it?
Ans: 60%

Q: And then CN1C[C@H](c2csc3c2CCC(F)(F)C3)[C@@H](C(=O)Nc2ccc(F)c(F)c2F)C1=O (racemic) [Compound 1368] , what is it?
Ans: 0%

Q: And then CN1C[C@H](c2csc3c2CCOC3)[C@@H](C(=O)Nc2cccc(F)c2F)C1=O [Compound 1268] , what is it?
Ans: 0%

* * *

What pest or weed control at 125 g/ha was measured for each of the following?
test system: blackgrass (Alopecurus myosuroides); assay: Test A postemergence; format: in vivo; details: Alopecurus myosuroides, post-emergence, 240 h, 125 g ai/ha, Postemergence, visual rating about 10 d after treatment; read-out: Blackgrass plant response rating (0 to 100 scale)
Description: […]
Dear colleague, please return just the value in %, with no unit written.

Q: Quick check: pest or weed control at 125 g/ha of CN1C[C@H](c2ccc(C(F)(F)F)cc2)[C@@H](C(=O)Nc2cccc(C#N)c2F)C1=O ?
Ans: 40

Q: And then CN1C[C@H](c2ccc(C(F)F)cc2)[C@@H](C(=O)Nc2cccnc2F)C1=O , what is it?
Ans: 30

Q: And then COc1ccc([C@H]2CNC(=O)[C@@H]2C(=O)Nc2cccc(F)c2F)cc1 , what is it?
Ans: 0

Q: And then CSc1ccccc1NC(=O)[C@H]1C(=O)NC[C@@H]1c1cc(C)cc(F)c1 , what is it?
Ans: 0

Q: And then CN1C[C@H](c2ccc(C(F)(F)F)nc2)[C@@H](C(=O)Nc2ccc(F)c(F)c2F)C1=O , what is it?
Ans: 50

Q: And then O=C1NC[C@H](c2cncs2)[C@H]1C(=O)Nc1cccc(F)c1F , what is it?
Ans: 0

Q: And then CN1C[C@H](c2csc3c2CCC(F)(F)C3)[C@@H](C(=O)Nc2ccc(F)c(F)c2F)C1=O (racemic) , what is it?
Ans: 30

Q: And then CN1C[C@H](c2csc3c2CCOC3)[C@@H](C(=O)Nc2cccc(F)c2F)C1=O , what is it?
Ans: 0

Q: And then CN1C[C@H](c2ccc(C(F)(F)F)cc2)[C@@H](C(=O)Nc2ccccc2-n2cccn2)C1=O , what is it?
Ans: 0

* * *

test system: giant foxtail (Setaria faberi); assay: Test G Pre-Emergence Protocol; assay type: in vivo; settings: Setaria faberi, pre-emergence, 312 h, 15.625 g ai/ha, evaluated after 13 days, read-out: Foxtail, Giant damage rating (100=total damage to plant; 0=no damage to plant)
What pest or weed control at 15.625 g/ha was measured for each of the following?
Dear colleague, please return just the value in %, with no unit written.

Q: Quick check: pest or weed control at 15.625 g/ha of CN1C[C@H](c2ccc(F)c(C#N)c2)[C@@H](C(=O)Nc2ccccc2F)C1=O (racemic) ?
Ans: 80

Q: And then CN1C[C@@H](c2ccc(C(F)(F)F)nc2)[C@H](C(=O)Nc2ccccc2S(C)(=O)=O)C1=O (racemic) , what is it?
Ans: 0

Q: And then Cc1cc([C@H]2CN(C)C(=O)[C@@H]2C(=O)Nc2cccc(F)n2)cc(C(F)(F)F)c1 (racemic) , what is it?
Ans: 80

Q: And then CN1CC(c2cc(C#N)cc(C(F)(F)F)c2)C(C(=O)Nc2cccc(F)c2F)C1=O (stereo not shown) , what is it?
Ans: 0
